assay: Cytotoxicity (MTT / CellTiter-Glo cell viability) in Vero-E6 cells; type: cell-based, African green monkey; details: African green monkey, Vero-E6 cells, at MNCC, 48 h exposure, normalized to untreated control; mean 2x
Structures can show the parent of a compound that is named as a salt.
Readout: viability at 48 h (%)
Value expressed in %; do not type the unit.

compound="NC(=O)c1ncn([C@@H]2O[C@H](CO)[C@@H](O)[C@H]2O)n1 [Ribavirin (RIB), Ribavirin]" quantitative_result=104
compound=O=C(Nc1cccc(C2=NCCN2)c1)Nc1cccc(C2=NCCN2)c1 quantitative_result=92
compound="COc1cc(NC(C)CCCN)c2ncccc2c1 (centres unmarked) [Primaquine Phosphate (PQ), Primaquine Phosphate]" quantitative_result=106
compound=CN(C)c1ccc2nc3ccc(=[N+](C)C)cc-3sc2c1 quantitative_result=84
compound=CCO[C@H]1O[C@@H]2O[C@@]3(C)CC[C@H]4[C@H](C)CC[C@@H]([C@H]1C)[C@@]24OO3 quantitative_result=104

Data point: CCN(CC)CCCC(C)Nc1ccnc2cc(Cl)ccc12 (centres unmarked) [Chloroquine diphosphate (CQ), Chloroquine diphosphate] ; viability at 48 h = 103

The reported viability at 48 h of the compound CCc1nc(N)nc(N)c1-c1ccc(Cl)cc1 was 94

The recorded viability at 48 h for entry CC[C@H]1OC(=O)[C@H](C)[C@@H](O[C@H]2C[C@@](C)(OC)[C@@H](O)[C@H](C)O2)[C@H](C)[C@@H](O[C@@H]2O[C@H](C)C[C@H](N(C)C)[C@H]2O)[C@](C)(O)C[C@@H](C)CN(C)[C@H](C)[C@@H](O)[C@]1(C)O [Azithromycin dehydrate (AZH), Azithromycin dehydrate] equals 92

Briefly, viability at 48 h measured for COc1c(C)c2c(c(O)c1C/C=C(\C)CCC(=O)O)C(=O)OC2 : 107

The reported viability at 48 h of the compound CCCCN(CCCC)CC(O)c1cc(Cl)cc2c1-c1ccc(Cl)cc1/C2=C/c1ccc(Cl)cc1 (centres unmarked) was 86

viability at 48 h reading for OC(c1cc(C(F)(F)F)nc2c(C(F)(F)F)cccc12)C1CCCCN1 (centres unmarked) : 105

// viability at 48 h value for C[C@H]1[C@H](N2CCS(=O)(=O)CC2)O[C@@H]2O[C@@]3(C)CC[C@H]4[C@H](C)CC[C@@H]1[C@@]24OO3 : 92

For reference, reported viability at 48 h for CCN(CC)Cc1cc(Nc2ccnc3cc(Cl)ccc23)ccc1O stands at 84

Value of viability at 48 h reported for the compound CN(C)C(=O)COC(=O)Cc1ccc(OC(=O)c2ccc(NC(=N)N)cc2)cc1 [Camostat mesylate (CAM), Camostat mesylate] is 118

The reported value for CN1CCN(CCCN2c3ccccc3Sc3ccc(Cl)cc32)CC1 in terms of viability at 48 h is 80

###

system: Vero-E6 and Calu-3 cells; experiment: Maximum non-cytotoxic concentration (MNCC) determination; assay type: cell-based; details: 48 h
Structures can show the parent of a compound that is named as a salt.
# MNCC Concentration per record follows
Write the value in µM as a bare number.

Known results for molecules:
molecule=CCO[C@H]1O[C@@H]2O[C@@]3(C)CC[C@H]4[C@H](C)CC[C@@H]([C@H]1C)[C@@]24OO3 readout="MNCC Concentration" quantitative_result=125
molecule="C[C@H]1[C@H](OC(=O)CCC(=O)O)O[C@@H]2O[C@@]3(C)CC[C@H]4[C@H](C)CC[C@@H]1[C@@]24OO3 [Artesunate injection (ASi), Artesunate]" readout="MNCC Concentration" quantitative_result=50

Lab note: next molecule to report on.
Lab book: MNCC Concentration of C=C[C@H]1C[N@@]2CC[C@H]1C[C@H]2[C@H](O)c1ccnc2ccc(OC)cc12 [Quinine Sulfate (QN), Quinine Sulfate] noted as 5
